READOUT_LABEL: melting point

MOLECULE | OBSERVED_VALUE
C=CCNC(=O)C1C(C(=O)O)[C@@H]2CC[C@H]1O2 (stereo in doubt) | 105 to 107 °C
O=C(O)CCCCCN1C(=O)C2C(C1=O)[C@H]1CC[C@@H]2O1 (stereo partly shown) | 110 to 112 °C
CC(CO)C12CCC(O1)C1C(=O)NC(=O)C12 (stereo not shown) | 104 to 107 °C
O=C(O)CCCN1C(=O)C2C(C1=O)[C@H]1CC[C@@H]2O1 (stereo partly shown) | 162 to 164 °C
CC(C)(CO)C12CCC(O1)C1C(=O)NC(=O)C12 (stereo not shown) | 134 to 136 °C
CCCCN(C(=O)C1C2CCC(O2)C1C(=O)O)c1ccccc1 (stereo not shown) | 105 to 107 °C
O=C(O)c1ccc(NC(=O)C2C(C(=O)O)[C@@H]3CC[C@H]2O3)cc1Cl (stereo in doubt) | 216 to 217 °C

Value source: patent US20100137294A1
